Some molecules, each annotated with its measured log10(IC50).
- TARGET_DESC: TBK1 (Homo sapiens (Human))
- MEASUREMENT_PROTOCOL: TBK1 low ATP kinase assay (in vitro assay 1)
- Format: biochemical
- MEASUREMENT_PARAMETERS: in vitro assay 1, read-out: TBK1 low ATP kinase assay IC50
Remember, log10 of IC50, in nM.

Recorded results for 3 molecules are shown here.
log10(IC50) lookup needed for Cc1noc(-c2ccc3nc(Nc4cc(CN5CCN(C(=O)CC(F)(F)F)CC5)c(Br)cn4)[nH]c3c2)n1 [Example 125.02] , thanks.
2.81

Quick one: log10(IC50) of N#Cc1cnccc1-c1ccc2nc(Nc3cc(CN4CCN(C(=O)C5CC5)CC4)ccn3)[nH]c2c1 [Example 103.01] ?
2.56

Request the reported log10(IC50) associated with O=C(CC(F)(F)F)N1CCN(Cc2ccnc(Nc3nc4ccc(-c5cc(N6CCC6)ncn5)cc4[nH]3)c2)CC1 [Example 147.02]
0.26

Others:
Quick check: log10(IC50) of CC(C)c1cc(-c2ccc3nc(Nc4cc(CN5CCN(C(=O)C6CC6)CC5)ccn4)[nH]c3c2)ncn1 [Example 78.02] ?
1.18

For the molecule shown here, Cc1noc(-c2ccc3nc(Nc4cc(CN5CCN(C(=O)C6CCC6)CC5)ccn4)[nH]c3c2)n1 [Example 16.01.05] , give the reported log10(IC50).
2.16

Find the recorded log10(IC50) belonging to CC(C)Oc1cnccc1-c1ccc2nc(Nc3cc(CN4CCN(C(=O)CC5CC5)CC4)ccn3)[nH]c2c1 [Example 06.03] and report it.
0.92

Which log10(IC50) value is on record for CC(C)(C)OC(=O)N1CCN(Cc2ccnc(Nc3nc4ccc(-c5ccnc(N)c5)cc4[nH]3)c2)CC1 [Example 138.01] ?
0.76

###

- TARGET_DESC: TBK1 (Homo sapiens (Human), UniProt Q9UHD2)
- Sequence (Q9UHD2 whole entry): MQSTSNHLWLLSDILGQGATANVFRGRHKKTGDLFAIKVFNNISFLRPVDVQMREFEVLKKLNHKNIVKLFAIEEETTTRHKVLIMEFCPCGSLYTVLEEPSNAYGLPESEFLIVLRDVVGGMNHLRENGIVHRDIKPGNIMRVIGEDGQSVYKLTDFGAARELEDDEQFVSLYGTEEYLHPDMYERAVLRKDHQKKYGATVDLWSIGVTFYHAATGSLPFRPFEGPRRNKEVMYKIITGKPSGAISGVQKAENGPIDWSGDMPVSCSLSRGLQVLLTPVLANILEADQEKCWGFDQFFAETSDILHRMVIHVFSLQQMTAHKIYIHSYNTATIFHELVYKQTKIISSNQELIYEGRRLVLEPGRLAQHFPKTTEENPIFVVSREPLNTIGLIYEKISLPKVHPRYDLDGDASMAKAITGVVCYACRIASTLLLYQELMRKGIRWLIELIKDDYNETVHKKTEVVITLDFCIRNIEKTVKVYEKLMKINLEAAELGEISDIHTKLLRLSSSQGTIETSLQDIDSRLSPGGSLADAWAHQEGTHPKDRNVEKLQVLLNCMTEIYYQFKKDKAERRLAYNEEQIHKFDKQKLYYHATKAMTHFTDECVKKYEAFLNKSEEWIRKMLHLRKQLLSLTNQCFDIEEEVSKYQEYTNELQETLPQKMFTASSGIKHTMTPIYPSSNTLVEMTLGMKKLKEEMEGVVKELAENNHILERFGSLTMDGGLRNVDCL
- MEASUREMENT_PROTOCOL: TBK1 low ATP kinase assay (in vitro assay 1)
- Format: biochemical
- MEASUREMENT_PARAMETERS: in vitro assay 1, read-out: TBK1 low ATP kinase assay IC50
# maps each entry to its IC50
State the value, then name its unit.

So what's the measured IC50 for this one? CC(c1ccnc(Nc2nc3ccc(-c4cc(N5CCC5)ncn4)cc3[nH]2)c1)N1CCN(C(=O)C2CC2)CC1 (single isomer, unassigned)
0.62 nM

###

- TARGET_DESC: TBK1 (Homo sapiens (Human))
- MEASUREMENT_PROTOCOL: TBK1 low ATP kinase assay (in vitro assay 1)
- Format: biochemical
- MEASUREMENT_PARAMETERS: in vitro assay 1, read-out: TBK1 low ATP kinase assay IC50
REPORTED_ENDPOINT: pIC50
Just so you know, pIC50 here is -log10 of the concentration in molar units; reply with that number alone.

Please review the entries below; each comes with its answer.
Data request, read-out pIC50, for O=C(CC(F)(F)F)N1CCN(Cc2ccnc(Nc3nc4ccc(-c5ccnc(C(F)(F)F)n5)cc4[nH]3)c2)CC1
6.71

Consider the compound CN(C)c1ncnc(-c2ccc3nc(Nc4cc(CN5CCN(C(=O)CC(F)(F)F)CC5)ccn4)[nH]c3c2)c1Cl and give its measured pIC50.
5.94

Name the reported pIC50 value associated with the compound CN(C)c1cnc(-c2ccc3nc(Nc4cc(CN5CCN(C(=O)C6CC6)CC5)ccn4)[nH]c3c2)cn1
6.36

Any idea what its pIC50 is? The compound is Cc1noc(-c2ccc3nc(Nc4cc(C(C)N5CCN(C(=O)C6CC6(F)F)CC5)ccn4)[nH]c3c2)n1 (single isomer, unassigned)
7.74

Entry CCN(CC)c1cc(-c2ccc3nc(Nc4cc(CN5CCN(C(=O)OC(C)(C)C)CC5)ccn4)[nH]c3c2)ncn1 : reported pIC50 = ?
7.44

Others:
Endpoint output: pIC50 of CC(C)Oc1cncnc1-c1ccc2nc(Nc3cc(C(C)N4CCN(C(=O)C5CC5)CC4)ccn3)[nH]c2c1 (single isomer, unassigned) . Value?
8.67

Would you mind telling me what pIC50 value was observed for CC(C)Nc1cc(-c2ccc3nc(Nc4cc(CN5CCN(C(=O)C6CC6)CC5)ccn4)[nH]c3c2)ncn1 ?
8.85

Which pIC50 is listed for O=C(C1CC1)N1CCN(Cc2ccnc(Nc3nc4ccc(-c5ccnc(OCC6CC6)n5)cc4[nH]3)c2)CC1 ?
8.28

// pIC50 lookup, key: CC(c1ccnc(Nc2nc3ccc(-c4cc(N5CCOCC5)ncn4)cc3[nH]2)c1)N1CCN(C(=O)OC(C)(C)C)CC1 (single isomer, unassigned)
8.10

Please report the recorded pIC50 for Cc1noc(-c2ccc3nc(Nc4cc(CN5CCN(C(=O)C6CC6)CC5)ccn4)[nH]c3c2)n1 .
7.17

Please give the measured pIC50 for this compound: Cn1ncnc1-c1ccc2nc(Nc3cc(CN4CCN(C(=O)C5CC5)CC4)ccn3)[nH]c2c1
6.11

Sample CCN(CC)c1cc(-c2ccc3nc(Nc4cc(CN5CCN(C(=O)C6CC6)CC5)ccn4)[nH]c3c2)ncn1 — what was its pIC50?
7.77

Which value of pIC50 has been reported for Cc1cc(-c2ccc3nc(Nc4cc(CN5CCN(C(=O)C6CCC6)CC5)ccn4)[nH]c3c2)ccn1 in the records?
7.15

Which pIC50 value belongs to CCOc1cc(-c2ccc3nc(Nc4cc(CN5CCN(C(=O)CC(F)(F)F)CC5)ccn4)[nH]c3c2)ncn1 ?
8.11

###

- TARGET_DESC: TBK1 (Homo sapiens (Human), UniProt Q9UHD2)
- MEASUREMENT_PROTOCOL: TBK1 low ATP kinase assay (in vitro assay 1)
- Type: biochemical
- MEASUREMENT_PARAMETERS: in vitro assay 1, read-out: TBK1 low ATP kinase assay IC50
REPORTED_ENDPOINT: IC50 (nM)
Entry rule: numbers only, all in nM.

So what does the record say about IC50 for CC(c1ccnc(Nc2nc3ccc(-c4cn[nH]c4)cc3[nH]2)c1)N1CCN(C(=O)OC(C)(C)C)CC1 (single isomer, unassigned) [Example 57.01] ?
7.83

Which value of IC50 has been reported for CC(C)Cc1noc(-c2ccc3nc(Nc4cc(CN5CCN(C(=O)CC(F)(F)F)CC5)ccn4)[nH]c3c2)n1 [Example 18.01] in the records?
72.4

Then there is this compound:
# input compound: CC(C)Oc1cc(-c2ccc3nc(Nc4cc(CN5CCN(C(=O)CC(F)(F)F)CC5)ccn4)[nH]c3c2)ncn1 [Example 160.02] ; wanted: its IC50
13

###

- TARGET_DESC: TBK1 (Homo sapiens (Human), UniProt Q9UHD2)
- MEASUREMENT_PROTOCOL: TBK1 low ATP kinase assay (in vitro assay 1)
- Assay type: biochemical
- MEASUREMENT_PARAMETERS: in vitro assay 1, read-out: TBK1 low ATP kinase assay IC50
pIC50: −log10 of the molar value.
Classification field: enter Satisfied for pIC50 values not below 8, Not satisfied for values below it.

Completed entries (count: 6):
Is the recorded value of pIC50 equal to or greater than 8 for this compound? Cc1noc(-c2ccc3nc(Nc4cc(CN5CCN(C(=O)OC(C)(C)C)CC5)ccn4)[nH]c3c2)n1 [Example 16.01.01]
Not satisfied

Test whether the compound CC(C)Nc1cc(-c2ccc3nc(Nc4cc(CN5CCN(C(=O)OC(C)(C)C)CC5)ccn4)[nH]c3c2)ncn1 [Example 154.01] records pIC50 of 8 or higher.
Satisfied

Is it the case that CC(c1ccnc(Nc2nc3ccc(-c4cc(C(F)(F)F)ncn4)c(F)c3[nH]2)c1)N1CCN(C(=O)OC(C)(C)C)CC1 (single isomer, unassigned) [Example 173.01] has pIC50 reaching or exceeding 8?
Not satisfied

Dear colleague, could you confirm whether CN(C)c1cc(-c2ccc3nc(Nc4cc(CN5CCN(C(=O)C6CC6)CC5)ccn4)[nH]c3c2)ccn1 [Example 135.03] has pIC50 at or above 8?
Not satisfied

Could you please find out whether O=C(C1CC1)N1CCN(Cc2cc(Nc3nc4ccc(-c5ccncn5)cc4[nH]3)nc(C(F)(F)F)c2)CC1 [Example 23.03.01] has pIC50 that meets 8 or exceeds it?
Not satisfied

Check the entry CC(c1ccnc(Nc2nc3ccc(-c4cnn(CC5CCC5)c4)cc3[nH]2)c1)N1CCN(C(=O)C2CC2)CC1 (single isomer, unassigned) [Example 59.01.03] : does pIC50 equal or exceed 8?
Satisfied

***
Reported pIC50 reaches at least 8 for COc1cnccc1-c1ccc2nc(Nc3cc(CN4CCN(C(=O)C(C)(C)C)CC4)ccn3)[nH]c2c1 [Example 04.06] ?
Not satisfied

Could you verify whether the entry O=C(CC(F)(F)F)N1CCN(Cc2ccnc(Nc3nc4ccc(-c5ncnc(NCC6CCC6)c5F)cc4[nH]3)c2)CC1 [Example 191.02] shows pIC50 of no less than 8?
Not satisfied

# bool: pIC50 of CC(C)(C)OC(=O)N1CCN(Cc2ccnc(Nc3nc4ccc(-c5cc(C6=CCOCC6)ncn5)cc4[nH]3)c2)CC1 [Example 198.01] >= 8
Not satisfied
